- Test system: MCF-7
- Assay Remarks: MTT cytotoxicity assay, MCF-7 cells
- Format: cell-based, human
- Setup Conditions: 24 h exposure, MTT; read-out: IC50 (µM) (average ± standard deviation) 24 h MCF-7
Observable: IC50

INSERT INTO measurements (compound, data_value) VALUES
  ('Cc1ccccc1.[Cl][Ru]([Cl])[PH](c1ccccc1)(c1ccccc1)c1ccccc1', '304 µM'),
  ('Cc1cccc[c]1[Ru+]([Cl])([PH](c1ccccc1)(c1ccccc1)c1ccccc1)[PH](c1ccccc1)(c1ccccc1)c1ccccc1.O=S(=O)([O-])C(F)(F)F', '4 µM'),
  ('Cc1ccccc1.[Cl-].[Cl][Ru+]([PH](c1ccccc1)(c1ccccc1)c1ccccc1)[PH](c1ccccc1)(c1ccccc1)c1ccccc1 [Compound 11Cl, [Ru(η^6-toluene)(PPh3)2Cl]Cl]', '4 µM'),
  ('Cc1c(C)c(C)[c-](C)c1C.[Cl][Ru+]([PH]12CN3CN(CN(C3)C1)C2)[PH]12CN3CN(CN(C3)C1)C2', '403 µM');
